// data source = ChEMBL document CHEMBL1156778

- Test system: Mycobacterium tuberculosis
- experimental_protocol: Antitubercular activity against Mycobacterium tuberculosis H37Rv in anaerobic condition after 7 days by low oxygen recovery assay
- Format: functional
- protocol_conditions: 168 h
measured_metric: log10(MIC) (log10 of the value in µM)
Kindly note that the scale is log10 and the underlying MIC is in µM.

# return recorded log10(MIC) for input "O=[N+]([O-])c1cn2c(n1)OC[C@@H](OCc1ccc(-c3ccc(Cl)c(OC(F)(F)F)c3)cc1)C2"
-0.02

Return reported log10(MIC). Input compound: "O=[N+]([O-])c1cn2c(n1)OC[C@@H](OCc1ccccc1-c1ccc(OC(F)(F)F)cc1)C2"
0.63

Item "CSc1ccc(-c2ccccc2CO[C@@H]2COc3nc([N+](=O)[O-])cn3C2)cc1" : provide log10(MIC)
0.53

Output log10(MIC) of "O=[N+]([O-])c1cn2c(n1)OC[C@@H](OCc1ccc(-c3ccc(Cl)c(OC(F)F)c3)cc1)C2"
0.04

Read off the recorded log10(MIC) for "O=[N+]([O-])c1cn2c(n1)OC[C@@H](OCc1cccc(-c3ccc(O)cc3)c1)C2"
0.76
